- TESTED ON: Aminopeptidase N (Plasmodium falciparum (isolate 3D7)) (UniProt O96935)
- Sequence (O96935 whole entry, looked up): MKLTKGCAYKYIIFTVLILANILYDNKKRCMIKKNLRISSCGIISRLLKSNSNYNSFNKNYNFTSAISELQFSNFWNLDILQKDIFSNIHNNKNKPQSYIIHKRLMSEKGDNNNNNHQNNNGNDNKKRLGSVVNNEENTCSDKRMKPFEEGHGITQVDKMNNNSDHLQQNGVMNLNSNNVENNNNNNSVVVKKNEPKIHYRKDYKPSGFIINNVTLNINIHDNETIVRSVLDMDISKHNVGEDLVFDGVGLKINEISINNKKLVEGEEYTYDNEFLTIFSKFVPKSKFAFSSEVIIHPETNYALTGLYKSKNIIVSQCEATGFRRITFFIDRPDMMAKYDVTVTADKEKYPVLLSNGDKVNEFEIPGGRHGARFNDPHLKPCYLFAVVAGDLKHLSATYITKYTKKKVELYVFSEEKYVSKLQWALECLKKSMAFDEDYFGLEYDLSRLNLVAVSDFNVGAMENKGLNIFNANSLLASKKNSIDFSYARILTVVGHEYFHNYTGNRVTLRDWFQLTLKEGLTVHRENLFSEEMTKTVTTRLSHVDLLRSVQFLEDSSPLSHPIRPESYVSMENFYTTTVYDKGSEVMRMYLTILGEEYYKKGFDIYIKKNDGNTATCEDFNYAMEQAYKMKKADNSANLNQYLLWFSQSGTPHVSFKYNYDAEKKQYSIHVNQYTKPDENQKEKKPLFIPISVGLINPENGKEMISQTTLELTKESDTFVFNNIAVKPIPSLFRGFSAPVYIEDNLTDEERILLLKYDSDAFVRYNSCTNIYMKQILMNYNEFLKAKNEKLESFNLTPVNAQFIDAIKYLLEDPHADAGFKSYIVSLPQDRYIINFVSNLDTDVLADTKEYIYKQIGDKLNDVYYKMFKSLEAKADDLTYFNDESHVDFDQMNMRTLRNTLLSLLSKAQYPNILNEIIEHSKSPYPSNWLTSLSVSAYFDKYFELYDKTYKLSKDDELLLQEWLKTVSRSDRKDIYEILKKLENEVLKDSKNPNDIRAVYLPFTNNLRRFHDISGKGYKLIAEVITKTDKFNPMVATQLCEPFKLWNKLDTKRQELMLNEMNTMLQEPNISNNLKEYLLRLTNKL
- ASSAY TEXT: malaria alanyl aminopeptidase activity blockers – biochemical, fluorogenic H-Leu-NHMec substrate, 1536-well (AID 1445);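 further: plate controls were DMSO full reaction for no effect and no enzyme background for full effect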
- STATED CONDITIONS: recombinant M1AAP, H-Leu-NHMec fluorogenic kinetic assay; at 30 µM, active compounds read high unless noted
Out of some 220,000 compounds screened, about 910 (0.41%) were called active. This excerpt belongs to a sample that is enriched for actives. Entries with a potency or affinity are not part of this list.
Give 1 when the value for inhibition is at least 10%. Give 0 when it is less.

Please check the record Cc1cccc(OCCOCCSc2ncccn2)c1 and state if its inhibition is at or above 10%.
1

Here is the next molecule: CS(=O)(=O)N(CC(=O)Nc1ccccc1Cl)c1ccc(Cl)cc1
0

What do we get for Cc1ccc(S(=O)(=O)c2c(C)nn(C(C)(C)C)c2OC(=O)c2ccc(Br)o2)cc1 ?
1

Do the same for CC(C)CCNC(=O)c1nnc(Cc2ccc(Cl)cc2)o1 please
0

What do you get for CCOc1ccc(/C=C2\SC(=S)N(Nc3ccccc3)C2=O)cc1OC ?
0
